experimentSummary: Selectivity ratio of Ki for displacement of [3H](+)-DTG from recombinant sigma 2 receptor (unknown origin) expressed in baculovirus infected Sf9 cell membranes to Ki for displacement of [3H](+)-pentazocine from recombinant sigma 1 receptor (unknown origin) expressed in baculovirus infected Sf9 cell membranes
assayConditions: Homo sapiens
readoutType: Ratio Ki

Worked examples follow.
# compound, readoutType, endpointValue
data = [
    ("Fc1ccc(CN2CCCN(C(=S)Nc3cc(F)cc(F)c3)C2)cc1", "Ratio Ki", 41.3),
    ("NC(=O)c1cccc(CNC2CCN(c3ccc(F)c(Cl)c3)C2)c1 (stereo unspecified)", "Ratio Ki", 1.1),
]

[a] Cc1nn(CCO)cc1CN(C)Cc1csc(-c2ccccc2)n1
[b] OC1COCCC1NC1CCN(c2ccc(C(F)(F)F)cn2)CC1 (stereo unspecified)
[c] Cc1[nH]c2cc(C(F)(F)F)ccc2c(=O)c1CN(C)Cc1ccccc1
[d] Cc1nn(-c2ccccc2Cl)c(Cl)c1CNCc1cc(F)cc(F)c1
stdin: Arrange these 4 compounds in increasing order of Ratio Ki. Provide your answer as the labels ordered per the instruction.
stdout: b, d, a, c

====

experimentalTarget: Sigma non-opioid intracellular receptor 1 (Homo sapiens, UniProt Q99720)
Sequence (Q99720 whole entry): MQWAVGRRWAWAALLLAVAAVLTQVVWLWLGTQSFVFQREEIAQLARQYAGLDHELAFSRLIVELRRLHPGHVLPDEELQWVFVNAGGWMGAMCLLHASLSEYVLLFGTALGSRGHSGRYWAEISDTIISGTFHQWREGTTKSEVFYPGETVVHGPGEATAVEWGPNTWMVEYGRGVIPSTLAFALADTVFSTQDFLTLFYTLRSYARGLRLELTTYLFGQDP
experimentSummary: Displacement of [3H](+)-pentazocine from recombinant sigma 1 receptor (unknown origin) expressed in baculovirus infected Sf9 cell membranes after 1.5 hrs by scintillation counting analysis
readoutType: Ki (nM)

Worked examples follow.
# compound, readoutType, endpointValue
measured = [
    ("O=C(c1ccc(C(F)(F)F)cc1)N1CCN(Cc2ccccc2)CC1", "Ki", 915),
    ("Fc1ccc(CN2CCCN(C(=S)Nc3cc(F)cc(F)c3)C2)cc1", "Ki", 23),
    ("FC(F)(F)c1cccc(-c2ccc(CNCc3cccnc3)o2)c1", "Ki", 191),
    ("Cc1nn(-c2ccccc2Cl)c(Cl)c1CNCc1cc(F)cc(F)c1", "Ki", 164),
]

[I] OC1COCCC1NC1CCN(c2ccc(C(F)(F)F)cn2)CC1 (stereo not drawn)
[II] Cc1nn(CCO)cc1CN(C)Cc1csc(-c2ccccc2)n1
[III] NC(=O)c1cccc(CNC2CCN(c3ccc(F)c(Cl)c3)C2)c1 (stereo not drawn)
stdin: Ranking field: Ki; order: falling. Provide your answer as the labels ordered per the instruction.
stdout: III, II, I
(III: 220 nM, II: 127 nM, I: 18 nM)

====

experimentalTarget: Sigma intracellular receptor 2 (Homo sapiens, UniProt Q5BJF2)
Sequence (Q5BJF2 whole entry): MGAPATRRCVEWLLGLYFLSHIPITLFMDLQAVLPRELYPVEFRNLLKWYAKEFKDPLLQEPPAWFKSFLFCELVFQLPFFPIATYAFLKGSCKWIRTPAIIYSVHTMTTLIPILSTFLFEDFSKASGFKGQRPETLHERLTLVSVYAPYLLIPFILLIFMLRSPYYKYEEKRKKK
experimentSummary: Displacement of [3H](+)-DTG from recombinant sigma 2 receptor (unknown origin) expressed in baculovirus infected Sf9 cell membranes after 1.5 hrs by scintillation counting analysis
readoutType: Ki (µM)

# compound, unitTag, endpointValue
data = [
    ("Fc1ccc(CN2CCCN(C(=S)Nc3cc(F)cc(F)c3)C2)cc1", "µM", 0.949),
]

[a] Cc1nn(-c2ccccc2Cl)c(Cl)c1CNCc1cc(F)cc(F)c1
[b] Cc1[nH]c2cc(C(F)(F)F)ccc2c(=O)c1CN(C)Cc1ccccc1
[c] NC(=O)c1cccc(CNC2CCN(c3ccc(F)c(Cl)c3)C2)c1 (stereo unspecified)
[d] OC1COCCC1NC1CCN(c2ccc(C(F)(F)F)cn2)CC1 (stereo unspecified)
stdin: Ranking field: Ki; order: falling. Provide your answer as the labels ordered per the instruction.
stdout: b, a, c, d
(b: 2.95 µM, a: 0.985 µM, c: 0.25 µM, d: 0.015 µM)

====

experimentalTarget: Sigma intracellular receptor 2 (Homo sapiens)
experimentSummary: Displacement of [3H](+)-DTG from recombinant sigma 2 receptor (unknown origin) expressed in baculovirus infected Sf9 cell membranes after 1.5 hrs by scintillation counting analysis
pKd: −log10 of the molar value.
Entries annotated with measured pKd

# compound, readoutType, endpointValue
data = [
    ("NC(Cc1ccccc1)C(=O)N1CCN(c2ccc3nccn3n2)CC1 (stereo not given)", "pKd", "< 6.00"),
    ("CC(CCc1c[nH]c2ccccc12)NC1CCN(C(=O)C(C)C)CC1 (stereo not given)", "pKd", "< 6.00"),
    ("FC(F)(F)c1cccc(N2CCC(/N=C/c3ccc(Br)cc3)N2)c1 (stereo not given)", "pKd", "< 6.00"),
    ("O=C(c1c[nH]c2ccccc12)N1CCC(N2CCc3ccccc3C2)C1 (stereo not given)", "pKd", "< 6.00"),
]

Moving on to another compound below.
stdin: Field request: pKd | item: Cc1c(C(=O)NC(CN(C)C)c2ccccc2)cnn1-c1ccc(F)cc1 (stereo not given)
stdout: < 6.00
